Assay Summary: NCI Yeast Anticancer Drug Screen. Data for the bub3 strain (AID 167)
Measurement Context: S. cerevisiae bub3 mutant strain, at 50.0 µM (retest, dose inferred, filed as 5.0)
Procedure: Growth inhibition of yeast strains with defined genetic alterations is measured as a screen for potential anti-cancer activity. Selected strains with alterations in DNA damage repair or cell cycle control were exposed to compounds and growth inhibition was measured relative to vehicle treated controls. The strain used in this assay is bub3
About 79,000 compounds went through this panel and 15% of them were active in at least one assay; those are over-represented in the sample as a whole. Activity calls are given as the source filed them. Cut-off read from the data, not from the text of the source: active = growth inhibition above about 70%; inactive = the rest.
Would you mind answering with one of these outcomes? active, inactive

Some solved cases for reference:
| Structure Smiles String | Class Assignment |
| --- | --- |
| COc1ccc2[nH]c3ccc4cc[n+](CCN5CCC(C6CCN(CC[n+]7ccc8ccc9[nH]c%10ccc(OC)cc%10c9c8c7)CC6)CC5)cc4c3c2c1 | active |
| Cc1ccc(NC(=S)SCc2ccc(Cl)cc2)cc1Cl | active |
| COC1=C2C[C@@H](C)C[C@@H](OC)[C@@H](O)[C@H](C)/C=C(\C)[C@@H](OC(N)=O)[C@H](OC)/C=C\C=C(/C)C(=O)NC(=CC1=O)C2=O | active |

Here is another compound to look at.
Task: Status in this test for Cc1cc(Br)ccc1NC(=O)/C=C/C(=O)O ?
Result: inactive

* * *

Assay Summary: NCI Yeast Anticancer Drug Screen. Data for the mec2-1 strain (AID 157)
Measurement Context: S. cerevisiae mec2-1 strain, at 50.0 µM, hits give high values
This is part of a sample that, as a whole, favours compounds with a hit. Of some 79,000 tested, about 15% had one in any assay.
Classes (growth inhibition): low: < 40%; middle: ≥ 40% and < 90%; high: ≥ 90%

Some solved cases for reference:
| Compound | Class Assignment |
| --- | --- |
| Cc1cc(Br)c(P(=O)(O)O)cc1[N+](=O)[O-] | middle |
| NC(c1ccccc1)P(=O)(OCc1ccc([N+](=O)[O-])cc1)OCc1ccc([N+](=O)[O-])cc1 (stereo not given) | low |
| O=C(N/C(=C\c1ccc([N+](=O)[O-])cc1)c1nc2ccccc2s1)c1ccccc1 | middle |
| CCOC(=O)CSC(=S)Nc1ccc(Cl)cc1 | low |
| CCCCCCCCCCNC(=O)C[n+]1cccc(C(=O)NCc2ccccc2)c1 | high |

Task: Category of O=C(O)C(c1ccccc1)c1ccc(-c2ccccc2)cc1 (stereo not given) , please.
Result: high

Task: Same read-out for C/C=C/C/C=C/CCC(=O)C1OC1C(N)=O (stereo not given) ?
Result: high

Task: Same read-out for CCCCOC(=O)C(C)OC(=O)NNc1ccccc1 (stereo not given) ?
Result: low

Task: Same read-out for CCCCCCCCCCCCCCCC(=O)N(CCCN(CC)CC)C(C)CCCN(CC)CC (stereo not given) ?
Result: middle

Task: Same read-out for CN(C)CC1(C)CC/C(=C\c2ccc(Cl)cc2)C1=O (stereo not given) ?
Result: low

Task: Same read-out for Clc1c2ccccc2cc2cccnc12 ?
Result: middle

Task: Same read-out for CC(=O)/C(=C\c1ccc(N(C)C)cc1)C(C)=[N+](C)C(=O)c1c(/[N+](C)=C(C)\C(=C\c2ccc(N(C)C)cc2)C(C)=O)ncn1C ?
Result: low

Task: Same read-out for O=P(O)(CN1CCN(CP(=O)(O)c2ccccc2)CCN(CP(=O)(O)c2ccccc2)CC1)c1ccccc1 ?
Result: middle

Task: Same read-out for N#CC(C(=O)CCCC(=O)Nc1ccc(Cl)cc1)c1ccccc1Cl (stereo not given) ?
Result: high

Task: Same read-out for Cc1ccc(N=C2SC(=S)N(CCC[N+](C)(C)C)C2=Nc2ccc(C)cc2)cc1 ?
Result: high

Task: Same read-out for Cn1cnc(=S)c2[nH]cnc21 ?
Result: low

Task: Same read-out for CC(=O)OC/C=C/CCCOC(C)=O ?
Result: middle
